Reported values of inhibition at 10 µM for individual entries
target: human JAK2 (Homo sapiens); construct: The kinase domain of human JAK2 was amplified from U937mRNA; His tag (from the pFastBac HTc vector) (N); made in house; host or cells: baculovirus; Sf9 for virus, High Five insect cells for production; test: JAK2 kinase assay (ELISA or Alphascreen); format: biochemical; details: read-out: Jak2 inhibition of enzyme activity
Sequence (O60674 849-1124 limits assumed): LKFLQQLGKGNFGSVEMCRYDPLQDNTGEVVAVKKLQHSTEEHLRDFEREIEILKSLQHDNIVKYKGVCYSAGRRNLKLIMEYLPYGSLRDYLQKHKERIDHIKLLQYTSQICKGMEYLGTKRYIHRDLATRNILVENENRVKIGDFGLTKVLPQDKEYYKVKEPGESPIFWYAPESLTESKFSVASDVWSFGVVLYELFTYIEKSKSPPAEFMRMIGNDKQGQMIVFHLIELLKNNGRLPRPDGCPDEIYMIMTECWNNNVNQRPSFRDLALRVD

Below are worked cases with known answers.
| chemSmiles | propertyName | assayValue |
| --- | --- | --- |
| O=C(NCCO)c1cncc(-c2cccs2)c1 | inhibition at 10 µM | < 50% |
| COc1cc(-c2cncc(C(=O)OC(C)(C)C)c2)ccc1O | inhibition at 10 µM | < 50% |

Now look at this one.
State its inhibition at 10 µM: `O=C(Nc1ccccc1)c1cncc(-c2cccnc2)c1`
< 50%
